These entries and their values trace back to patent US11730720B2.

Tested on: TGF-β-stimulated SMAD3 phosphorylation in BEAS-2B cells
Assay: Cellular ALK5 potency assay, inhibition of TGF-β stimulated pSMAD3 formation in BEAS-2B cells
Format: cell-based
Details: Homo sapiens, inhibition of TGF-β (10 ng/mL) stimulated pSMAD3 formation, 1 hour compound incubation, read-out: BEAS2B pIC50 (converted)
Quick list: IC50 per entry.
experimental.endpoint: IC50

compound	test.value
Fc1cc(F)c(-c2n[nH]cc2-c2ccc3ncc(-c4nc5n(n4)CCNC5)cc3n2)cc1Cl	25.1 to 158 nM
Fc1ccc(Cl)cc1-c1[nH]cnc1-c1ccc2ncc(N3CCn4nc(C5=CCNC5)nc4C3)cc2n1	200 to 1260 nM
Fc1ccc(Cl)cc1-c1n[nH]cc1-c1ccc2ncc(-c3[nH]nc4c3CNCC4)cc2n1	25.1 to 158 nM
CN1CCN(C2CCN(c3cnc4ccc(-c5c(-c6cc(Cl)ccc6F)nc6ccccn56)cc4c3)CC2)CC1	200 to 1260 nM
CNCCn1cc(-c2cnc3ccc(-c4nc[nH]c4-c4cccc(Cl)c4)cc3c2)cn1	≤ 20 nM
Cn1cccc(-c2cnc3ccc(-c4c[nH]nc4-c4cc(Cl)ccc4F)nc3c2)c1=O	≤ 20 nM
CNCCn1cc(-c2cnc3ccc(-c4c(-c5cc(Cl)c(F)cc5F)[nH]c5cccnc45)nc3c2)cn1	200 to 1260 nM
Fc1ccc(Cl)cc1-c1[nH]cnc1-c1ccc2ncc(NCC3CCCCN3)cc2n1 (stereo not shown)	25.1 to 158 nM
CNCCn1cc(-c2cnc3ccc(-c4c[nH]nc4-c4cccc(COC)c4)nc3c2)nn1	25.1 to 158 nM
Fc1ccc(Cl)cc1-c1n[nH]cc1-c1ccc2ncc(NCCN3CCNCC3)cc2n1	25.1 to 158 nM
Clc1cccc(-c2[nH]cnc2-c2ccc3ncc(NCCN4CCNCC4)cc3c2)c1	25.1 to 158 nM
Fc1ccc(Cl)cc1-c1n[nH]cc1-c1ccc2ncc(N[C@@H]3CCNC3)cc2n1	25.1 to 158 nM
CCN1CCC(N(C)c2cnc3ccc(-c4c[nH]nc4-c4cc(Cl)c(F)cc4F)nc3c2)CC1	25.1 to 158 nM
CC(C)N1CCN(CCNc2cnc3ccc(-c4c(-c5cc(Cl)ccc5F)nc5ccccn45)nc3c2)CC1	25.1 to 158 nM
Fc1cc(F)c(-c2n[nH]cc2-c2ccc3ncc(-c4cnn(CC5CNC5)c4)cc3n2)cc1Cl	25.1 to 158 nM
O=Cc1cnc2ccc(-c3c[nH]nc3-c3cc(Cl)ccc3F)nc2c1	≤ 20 nM
